# System: Fibroblast
# TEST: Multiplex assay against human fibroblast
# Type: toxicity, cell-based
# DETAILS: 48 h, 10 µM, compound concentration 10 uM, replicate 1
MEASURED METRIC: Population Fragmented Nuclei (%)
Give the value in % but do not write % after it.

Tell me its Population Fragmented Nuclei (%) given `Oc1cccc(-c2nc(N3CCOCC3)c3oc4ncccc4c3n2)c1` as the entry.
35

Report Population Fragmented Nuclei (%), nothing else, for this molecule: `CC(C)c1cc(Nc2nc(N3CCC[C@H](N)C3)ncc2C(N)=O)cc(C(C)C)n1`
43

Using known records, supply Population Fragmented Nuclei (%) for `CC(C)[C@H](CO)Nc1nc(Nc2cccc(Cl)c2)c2ncn(C(C)C)c2n1`
32
